Tested on: M14 melanoma
Method summary: NCI tumour cell line growth inhibition, 48 h
Reported values of GI50 for individual entries

Answered cases to consult:
{"columns": ["Compound", "Value kind", "Result"],
 "data": [
  ["O=C(c1ccc2ccccc2c1)c1c(C(F)(F)F)n([O-])c2cc(Cl)c(Cl)cc2[n+]1=O", "GI50", "1.66 µM"],
  ["COc1c(C2CC(=O)Nc3c2cnn3Cc2ccco2)cc2c(c1OC)OCO2 (centres undefined)", "GI50", "0.408 µM"],
  ["COc1ccc(-c2nn(-c3cccc(Cl)c3)cc2C2CC(c3ccccc3)=NN2C(C)=O)cc1 (centres undefined)", "GI50", "7.68 µM"],
  ["CC(C)(C)c1cc(O)c(O)c(C(C)(C)C)c1", "GI50", "3.91 µM"],
  ["COc1cc2ncn(-c3cc(OCc4ccccc4Cl)c(C(N)=O)s3)c2cc1OC", "GI50", "0.164 µM"],
  ["CN=C(N)N/N=C(\\c1ccccc1)c1ccc(Br)cc1", "GI50", "0.272 µM"],
  ["C#Cc1cnc(=O)n(C2CC(O)C(CO)O2)c1 (centres undefined)", "GI50", "> 100 µM"],
  ["C=CC(=O)N[C@H]1C=C(C)c2c(-c3cnc4ccccc4c3)c3c(N)ncnc3n2C1", "GI50", "10 µM"]
]}

Challenge: Given CNC(=O)c1ccccc1CC1(O)c2ccccc2Oc2ccccc21 , state its recorded GI50.
Response given: 15.3 µM

Source of measurements: PubChem BioAssay (NCI)
